# Lookup of reported PBM binding z-score keyed by entry
# Tested on: LXRa:RXRa (NR concentration 270 nM, RXRa partner concentration 90 nM)
# experimental-protocol: PBM binding z-score (relative to random genomic background probes); higher = stronger binding; sequences stand for … in GC…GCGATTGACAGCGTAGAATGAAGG
Returns: the value as a bare number; no unit string appended.

{"monomer-sequence": "CCGACTGGGGCAGGAAGGTTACCATACCATCCGG", "PBM binding z-score": -0.228}

q: Print LXRa:RXRa (NR concentration 270 nM, RXRa partner concentration 90 nM) PBM binding z-score for ATATCTAGGTAACCAAGTTCAGTGAATGCCGAAC .
a: 0.866

q: Recall the reported PBM binding z-score of CCTACCGGGCCACGAAAGGTCATTGATTCAGTGA on LXRa:RXRa (NR concentration 270 nM, RXRa partner concentration 90 nM) and write it down.
a: 5.17

q: Look up LXRa:RXRa (NR concentration 270 nM, RXRa partner concentration 90 nM) data: PBM binding z-score of GATACAGGGGCAGCTAGAGGCCAGAGTATGGAAA , then report it.
a: 0.017

q: Report measured PBM binding z-score on LXRa:RXRa (NR concentration 270 nM, RXRa partner concentration 90 nM); entry: GGAACGTGGGCAAGTTGATAGCAGAGTTTGATGG
a: -0.763

###

# System: RARa homodimer (NR concentration 270 nM)
# experimental-protocol: PBM binding z-score (relative to random genomic background probes); higher = stronger binding; sequences stand for … in GC…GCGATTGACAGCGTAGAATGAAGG
Below, each entry is listed alongside its reported PBM binding z-score.
Number, no unit, nothing else.

{"monomer-sequence": "ATCTCTAGGTAACTAGTTCAGTGAAAGAGAGGAC", "readout-label": "PBM binding z-score", "reported-value": 0.388}

Now for another entry.
q: Determine from records and report PBM binding z-score for TCATATAGGCAAAGGTGAAAGTCGAACGATATGA
a: 0.326

###

# Tested on: PPARg DBDmut:RXRa IVT, anti-PPARg (DBD mutation: PPARg1 K132A/R137A, NR concentration 270 nM, RXRa partner concentration 90 nM)
# experimental-protocol: PBM binding z-score (relative to random genomic background probes); higher = stronger binding; sequences stand for … in GC…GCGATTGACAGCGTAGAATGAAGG
PBM binding z-score overview
The reply should be a number, written without any unit.

q: Item ACTATTAGTTGACATAGGGCAACCGATACGACGC : provide PBM binding z-score
a: 1.27

###

# Test system: PXR homodimer (NR concentration 270 nM)
# experimental-protocol: PBM binding z-score (relative to random genomic background probes); higher = stronger binding; sequences stand for … in GC…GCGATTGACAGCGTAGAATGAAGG
Criterion: PBM binding z-score meeting or surpassing 0.1. Met: yes (1). Not met: no (0).

{"monomer-sequence": "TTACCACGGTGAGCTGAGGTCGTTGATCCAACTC", "discrete-label": "yes (1)"}
{"monomer-sequence": "ATACCAAGGTGATCGTGAGATCGTTGATACTAAC", "discrete-label": "no (0)"}
{"monomer-sequence": "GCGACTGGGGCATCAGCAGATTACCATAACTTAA", "discrete-label": "no (0)"}
{"monomer-sequence": "ATCTCTAGGTAACAAGTACAGTGAAAGAGAGGAC", "discrete-label": "yes (1)"}
{"monomer-sequence": "TTACCAAGGTGAGCTGTGGTCGTTGATCCAACTC", "discrete-label": "no (0)"}

q: Does the reported PBM binding z-score for CTCGAAAGGTCGTACTCAGGTGAGTATACCAAAC fall at or above the 0.1 mark?
a: no (0)

q: API: above_or_equal(metric=PBM binding z-score, cutoff=0.1) for item TCATATAAGTAAAGGTGAAAGTCGAACGATATGA
a: yes (1)

q: Does the reported PBM binding z-score for ATCGAAAGGTCGAAGGTAAGTATACCCACCCGAA fall at or above the 0.1 mark?
a: yes (1)

q: Is reported PBM binding z-score greater than or equal to 0.1 here: GCTCGGAGGACAAGGGCAGAGCTTTGTCCGTAGA
a: no (0)

q: Does the sequence CCTGCTAGGTCATAGTCAGCTAATCTACAGTATG have recorded PBM binding z-score that is 0.1 or more?
a: no (0)

q: I'd appreciate it if you could say whether TCTAGCAGGCCGGAGGGTCACTCAAGAGGTACGG has PBM binding z-score at least equal to 0.1.
a: no (0)

q: Tell me whether PBM binding z-score is at least 0.1 here: GCTAGCAGGCCATTTCGGTCACTCAATGACGGGC
a: no (0)

q: PBM binding z-score >= 0.1 for GCAGTCAGGTGAAACGCAGGTAACTCAGGGTGGC ?
a: no (0)

q: Is PBM binding z-score for CCTTACGGGTCACTGACAAGTTATAGCATTTGGA at or above 0.1?
a: no (0)

q: Hi team, for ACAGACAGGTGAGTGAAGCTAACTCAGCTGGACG , is the recorded PBM binding z-score at or above 0.1?
a: no (0)

q: Given the entry TAGCCTAGGTCATGCGGGCCAGTATGGTGTCGGC , answer whether its PBM binding z-score meets or surpasses 0.1.
a: no (0)

q: Tell me whether PBM binding z-score is at least 0.1 here: CAAACTAGGTCACAGAGGTCAAAGACCGTGCGTA
a: yes (1)

q: Answer whether PBM binding z-score of ACTATTAGTAGAGACGAGGGCAACCGATAGGTTG is greater than or equal to 0.1.
a: yes (1)

q: Does PBM binding z-score meet or surpass 0.1 for CGAACGAGGGAATGAGTTGATAGCAAATGCCGAT ?
a: no (0)
